tested on: K562; assay: NCI tumour cell line growth inhibition, 48 h
Calls of active or inactive are those of the source. Cut-off read from the data, not from the text of the source: active = GI50 up to about 1.1 µM and inactive = higher.
experimental.readout: GI50

Previously resolved entries follow.
{"columns": ["chemical.structure", "experimental.readout", "result"],
 "data": [
  ["Cn1c(O)c(C(=O)Nc2cccs2)c(=O)[nH]c1=S", "GI50", "51.9 µM (inactive)"],
  ["COC(=O)c1ccc(/C=C2\\Oc3ccccc3C2=O)cc1", "GI50", "> 10 µM (inactive)"],
  ["Cn1nc2ccc3nccc(NCCNCCO)c3c2n1", "GI50", "73.5 µM (inactive)"]
]}

The compound `O=C(NO)c1coc2ccccc2c1=O` , tested on K562, showed GI50 of > 100 µM (inactive)

// provenance: ChEMBL document CHEMBL1201862
